# Tested on: HCT-15 colon
# Experiment: NCI tumour cell line growth inhibition, 48 h; in the data active means GI50 below about 0.43 µM; inactive means the rest
Answer with one of the outcomes active, inactive

Would you please look over these solved cases?
{"Compound": "CC(C)(C)C(=O)c1c(C(F)(F)F)n([O-])c2cc(Cl)c(Cl)cc2[n+]1=O", "Class": "active"}
{"Compound": "C[C@@H](CS[As](C)C)C(=O)N1CCC[C@H]1C(=O)O", "Class": "active"}
{"Compound": "Cc1nn(Cc2ccccc2)cc1C(=O)Nc1sc2c(c1C(N)=O)CCC(=O)C2", "Class": "inactive"}
{"Compound": "Cc1ccc(N=Nc2c(O)ccc3n[nH]nc23)cc1", "Class": "inactive"}
{"Compound": "C[C@@]1(C(=O)O)CCC[C@]2(C)C1CC[C@]13C[C@@](O)(CO)[C@](O)(CC[C@]12O)C3 (some centres undefined)", "Class": "inactive"}

Ask: Can you look up the reported call for COc1ccc(/C=C\c2cc(OC)c(OC)c(OC)c2)cc1OC(=O)CC(N)C(=O)O (centres undefined) for me?
Reply: active

Ask: Can you look up the reported call for `O=C(N=Nc1c(Cl)c(O)c2ccccc2c1O)C(=O)Nc1cccc(C(F)(F)F)c1` for me?
Reply: inactive

Ask: Can you look up the reported call for `CC(C)c1[nH]nc2c(NCc3ccc(-c4ccccn4)cc3)nc(SCCN(C)C)nc12` for me?
Reply: active

Ask: Can you look up the reported call for CNCC(=O)NC(CO)C(=O)NC(CO)C(=O)NC1C(C(N)=O)OC(n2ccc(N)nc2=O)C(O)C1O (centres undefined) for me?
Reply: inactive

Ask: Can you look up the reported call for `CC(C)(O)CCc1cccc(C(=O)c2cnn(-c3ccc(F)cc3)c2N)c1` for me?
Reply: inactive

Ask: Can you look up the reported call for `O=c1cc(-c2ccccc2)oc2cc(OCCCCCN3CCOCC3)cc(O)c12` for me?
Reply: inactive

---

# System: SK-MEL-5 melanoma
# Experiment: NCI tumour cell line growth inhibition, 48 h
Readout label: TGI

Some solved entries appear below for comparison.
{"Molecule": "CC(=O)[CH-]C(=O)c1ccccc1.CC(=O)[CH-]C(=O)c1ccccc1.CC[C@H](/C=C/C(C)[C@H]1CCC2[C@@H]3CC=C4C[C@@H]([O-])CC[C@]4(C)C3CC[C@@]21C)C(C)C.CC[C@H](/C=C/C(C)[C@H]1CCC2[C@@H]3CC=C4C[C@@H]([O-])CC[C@]4(C)C3CC[C@@]21C)C(C)C.Cl.[Ti+4] (stereo partly drawn)", "TGI": "> 25 µM"}
{"Molecule": "O=C(Cn1c(C(=O)/C=C/c2ccc(Cl)cc2)nc2ccccc21)c1ccc(Cl)cc1", "TGI": "29.3 µM"}

Ask: # input molecule: `C1=Nc2ccc(cc2)-c2ccc(cc2)N=Cc2ccc(cc2)OCc2cccc(n2)COc2ccc1cc2` ; wanted: its TGI
Reply: > 100 µM

---

# Tested on: SNB-19 CNS
# Experiment: NCI tumour cell line growth inhibition, 48 h
Readout label: TGI

Some solved entries appear below for comparison.
{"Compound": "CC(=O)N1C(CCc2ccccc2)CC(C)(C=O)C1Cc1ccc(O[Si](C(C)C)(C(C)C)C(C)C)cc1 (centres undefined)", "Measured on": "SNB-19 CNS", "TGI": "18.1 µM"}
{"Compound": "COc1cccc(/C=C2\\SC(=S)N(/C=C3\\C(=O)Oc4ccccc4C3=O)C2=O)c1O", "Measured on": "SNB-19 CNS", "TGI": "> 100 µM"}
{"Compound": "CC1(C)N=C(c2ccccc2)SC12S[C@@H]1CCCC[C@H]1S2", "Measured on": "SNB-19 CNS", "TGI": "32.1 µM"}
{"Compound": "CC(=O)N1C(=O)c2cc3ccccc3cc21", "Measured on": "SNB-19 CNS", "TGI": "> 100 µM"}
{"Compound": "CC1(C)OC[C@H](COCOP2(=O)Oc3ccc4ccccc4c3-c3c(ccc4ccccc34)O2)O1", "Measured on": "SNB-19 CNS", "TGI": "34.7 µM"}

Ask: # input compound: `CC(C)(C)n1c(=O)n(-c2ccccc2)n(C(C)(C)C)c1=O` ; wanted: its TGI
Reply: > 100 µM

Ask: # input compound: CC1=NN(C(=O)CC(=O)NC(=O)/C=C\c2ccccc2)C(=O)C1N=Nc1ccc([N+](=O)[O-])cc1 (centres undefined) ; wanted: its TGI
Reply: > 100 µM

---

# Tested on: MOLT-4 leukemia
# Experiment: NCI tumour cell line growth inhibition, 48 h
Form field: GI50 (one value per entry).

Some solved entries appear below for comparison.
{"Molecule": "COc1cccc(N2CCN(c3ncnc4cc[nH]c34)CC2)c1", "Test result": "2460 nM"}
{"Molecule": "C[C@@H](CS[As](C)C)C(=O)N1CCC[C@H]1C(=O)O", "Test result": "93.3 nM"}
{"Molecule": "C[C@@]1(C(=O)O)CCC[C@]2(C)C1CC[C@]13C[C@@](O)(CO)[C@](O)(CC[C@]12O)C3 (stereo partly drawn)", "Test result": "> 100000 nM"}

Ask: # input molecule: `Cc1nn(Cc2ccccc2)cc1C(=O)Nc1sc2c(c1C(N)=O)CCC(=O)C2` ; wanted: its GI50
Reply: 2620 nM

Ask: # input molecule: `Oc1ccc(Cl)cc1Sc1cc(Cl)ccc1O` ; wanted: its GI50
Reply: 3770 nM

Ask: # input molecule: `COCCNCc1ccc(-c2cc3nccc(Oc4ccc(NC(=O)C5(C(=O)Nc6ccc(F)cc6)CC5)cc4F)c3s2)nc1` ; wanted: its GI50
Reply: 1460 nM

Ask: # input molecule: `CC(C)(O)CCc1cccc(C(=O)c2cnn(-c3ccc(F)cc3)c2N)c1` ; wanted: its GI50
Reply: > 25000 nM

Ask: # input molecule: CN(C)CC1C(=O)O[C@H]2[C@H]1CC/C(COC(=O)NCc1ccc(Cn3c(=O)sn(CCCI)c3=O)cc1)=C\CC[C@@]1(C)O[C@@H]21 (stereo partly drawn) ; wanted: its GI50
Reply: 947 nM

---

Form field: TGI (one value per entry).
# System: SF-268 CNS
# Experiment: NCI tumour cell line growth inhibition, 48 h

Some solved entries appear below for comparison.
{"Smiles data": "c1cc(C2CCCCC2)ccc1-c1cnc2nonc2n1", "TGI": "9.29 µM"}
{"Smiles data": "c1ccc(C2=NN=C3C(c4ccccc4)=Nc4ccccc4N3C2)cc1", "TGI": "> 60.2 µM"}
{"Smiles data": "Cc1cc2c(nn1)CCc1c-2no[n+]1[O-]", "TGI": "> 100 µM"}
{"Smiles data": "O=C(O)/C(Cl)=C(Cl)/C=N/NC(=O)c1cc2ccccc2cc1O", "TGI": "> 100 µM"}

Attention now turns to another entry.
Ask: # input molecule: `C[C@H](CCC(=O)NCCS(=O)(=O)O)[C@H]1CC[C@H]2[C@@H]3[C@H](O)C[C@@H]4C[C@H](O)CC[C@]4(C)[C@H]3CC[C@]12C` ; wanted: its TGI
Reply: > 100 µM

---

# Tested on: NCI-H226 lung
# Experiment: NCI tumour cell line growth inhibition, 48 h
Readout label: TGI (µM)
Lab book: enter the figure in µM, no units written.

{"Compound": "CC(C)(C)C1=CC(=C2C=Cc3cc(O)ccc3O2)C=C(C(C)(C)C)C1=O", "Measured on": "NCI-H226 lung", "TGI (µM)": 3.43}
{"Compound": "O=C(OCc1ccccc1)c1ccc(NCc2cc(O)ccc2O)cc1", "Measured on": "NCI-H226 lung", "TGI (µM)": 7.69}

Ask: # input compound: `O=C(N=Nc1c(Cl)c(O)c2ccccc2c1O)C(=O)Nc1cccc(C(F)(F)F)c1` ; wanted: its TGI
Reply: 28.2

Ask: # input compound: COc1ccc(/C=C\c2cc(OC)c(OC)c(OC)c2)cc1OC(=O)CC(N)C(=O)O (stereo not drawn) ; wanted: its TGI
Reply: 0.107

Ask: # input compound: `C=C1C(=O)O[C@H]2[C@H]1CC/C(COC(=O)CCCCCCCC(=O)OC/C1=C/CC[C@@]3(C)O[C@H]3[C@H]3OC(=O)C(=C)[C@@H]3CC1)=C\CC[C@@]1(C)O[C@@H]21` ; wanted: its TGI
Reply: 6.97

---

# Tested on: NCI-H23 lung
# Experiment: NCI tumour cell line growth inhibition, 48 h
# binarize TGI: threshold 30 µM inclusive, high side TRUE, low side FALSE

Would you please look over these solved cases?
{"Molecule": "COC(=O)c1ccc(NC(=O)c2ccc(NC3=C(Cl)C(=O)N(Cc4ccccc4)C3=O)cc2)cc1", "Class": "FALSE"}
{"Molecule": "Cc1cc(-c2nc3n(c2/C=N/N=C(N)N)CCS3)c(C)s1", "Class": "FALSE"}
{"Molecule": "O=C1C=C(NCC(c2ccccc2)c2ccccc2)C(=O)c2ncccc21", "Class": "FALSE"}
{"Molecule": "COc1c2cc([N+](=O)[O-])cc1CN(C(=O)C(F)(F)F)CCOCCN(C(=O)C(F)(F)F)C2", "Class": "TRUE"}
{"Molecule": "CC1=NN(c2cccc(Cl)c2)C(=O)/C1=C\\C=C\\c1ccccc1", "Class": "FALSE"}

Ask: Given the entry CCO[C@@]12CCC3CC4CC[C@@](OCC)(O1)C4C32 (some centres undefined) , answer whether its TGI meets or surpasses 30 µM.
Reply: TRUE

Ask: Given the entry `COC(=O)[C@@H](NC(=O)[C@H](N)Cc1ccc(N(CCCl)CCCl)cc1)C(C)C` , answer whether its TGI meets or surpasses 30 µM.
Reply: FALSE

Ask: Given the entry `O=[N+]([O-])c1cccc(-c2cn3c(n2)Cc2ccccc2C3)c1` , answer whether its TGI meets or surpasses 30 µM.
Reply: TRUE

Ask: Given the entry `CCOC(=O)c1c(N2CCOCC2)ncn(-c2cccc(Cl)c2)c1=O` , answer whether its TGI meets or surpasses 30 µM.
Reply: TRUE

Ask: Given the entry `CCOC(=O)N/N=C(\CC)NO` , answer whether its TGI meets or surpasses 30 µM.
Reply: TRUE

Ask: Given the entry `N#Cc1c(N)nc(SCc2ccccc2)c(C#N)c1-c1ccc(O)cc1` , answer whether its TGI meets or surpasses 30 µM.
Reply: TRUE

Ask: Given the entry CC(C)N1C(C)[C@@H](c2ccccc2)O[P@@]1(=O)CC1=CCCCC1 (some centres undefined) , answer whether its TGI meets or surpasses 30 µM.
Reply: TRUE
